Hello, the source for this data is PubChem BioAssay AID342, in case you need it.

Give measured T/C for each item. Keep answers brief.
Test system: Swiss mice, Sarcoma 180 sc, mean tumor weight T/C
TEST PROTOCOL: NCI In Vivo Anticancer Drug Screen. Data for tumor model Sarcoma 180 (subcutaneous) in Swiss mice
EXPERIMENTAL SETUP: endpoint: mean tumor weight; dose: 125.0 mg/kg/injection; schedule: Q01DX007 (ip); vehicle: carboxymethylcellulose (CMC); higher = larger tumour

| COMPOUND | TEST SYSTEM | MEAS VALUE |
| --- | --- | --- |
| C=CCNc1ccc(C)cc1 | Swiss mice, Sarcoma 180 sc, mean tumor weight T/C | 26 % of control |

For every item in the list below, what is its measured T/C?
1. C(=N\N(c1ccccc1)c1ccccc1)/C(=C/c1ccccc1)c1ccccc1
2. CC1(C)CCC2(C(=O)O)CCC3=C(C(CCl)CC4C3(C)CCC3C4(C)CC(O)C(O)C3(C)C(=O)O)C2C1 (stereo unspecified)
3. CNNCc1ccc(C(=O)NC(N)=O)cc1
4. O=C(N[C@H](CO)[C@H](O)c1ccc([N+](=O)[O-])cc1)C(Cl)Cl
5. CN(C)N=Nc1n[nH]nc1C(N)=O

1. 85 % of control
2. 70 % of control
3. 38 % of control
4. 99 % of control
5. 43 % of control

For every item in the list below, what is its measured T/C?
1. CC(=O)N(C)C
2. O=CCC(O)C(O)C(O)CO (stereo unspecified)
3. CS(=O)(=O)OCC(O)C(O)COS(C)(=O)=O (stereo unspecified)

["95 % of control", "86 % of control", "74 % of control"]

For every item in the list below, what is its measured T/C?
1. CCCCC(=O)OCC1OC(n2cnc3c(=S)nc[nH]c32)C(OC(=O)CCCC)C1OC(=O)CCCC (stereo unspecified)
2. COC(=O)c1ccccc1NC(c1ccccn1)c1ccc2cccnc2c1O (stereo unspecified)
3. CC(C)C(=O)OCC1OC(n2cnc3c(=S)nc[nH]c32)C(OC(=O)C(C)C)C1OC(=O)C(C)C (stereo unspecified)
4. CCOC(=O)c1ccc(N=NN(C)C)cc1

["34 % of control", "104 % of control", "8 % of control", "49 % of control"]
